Target: T1, human TIGIT-Fc (human, UniProt Q495A1 22-141, limits assumed)
T1 construct: not shown: Fc; not described
T1 sequence (looked up): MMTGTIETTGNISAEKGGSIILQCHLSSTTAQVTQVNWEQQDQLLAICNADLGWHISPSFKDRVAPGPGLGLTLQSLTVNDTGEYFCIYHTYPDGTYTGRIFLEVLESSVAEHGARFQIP
Method summary: CD155 competition ELISA, titration
Observable: EC50 (nM)
The reply should contain only the number, in nM.

TIGIT-SC97 (Fc fusion, VHH-Fc) VHH: EVQLVESGGGLVQPGGSLRLSCAASGTAASFNPMGWFRQAPGKEREFVAAISWSGGSTNYADSVKGRFTISADNSKNTAYLQMNSLKPEDTAVYYCVTYSAYDFRNAWGQGTLVTVSS: 0.971

// next entry
Recorded result, TIGIT-SC46 (Fc fusion, VHH-Fc) VHH: EVQLVESGGGLVQPGGSLRLSCAASGRTFSNYVMGWFRQAPGKERELVASISSFGSTYYADSVKGRFTISADNSKNTAYLQMNSLKPEDTAVYYCARSGGFLSDWGQGTLVTVSS , EC50: 1.37

The measured values listed here are drawn from patent US20260184782A1.
